subject of test: FLT3 (Homo sapiens)
Sequence (P36888 27-993): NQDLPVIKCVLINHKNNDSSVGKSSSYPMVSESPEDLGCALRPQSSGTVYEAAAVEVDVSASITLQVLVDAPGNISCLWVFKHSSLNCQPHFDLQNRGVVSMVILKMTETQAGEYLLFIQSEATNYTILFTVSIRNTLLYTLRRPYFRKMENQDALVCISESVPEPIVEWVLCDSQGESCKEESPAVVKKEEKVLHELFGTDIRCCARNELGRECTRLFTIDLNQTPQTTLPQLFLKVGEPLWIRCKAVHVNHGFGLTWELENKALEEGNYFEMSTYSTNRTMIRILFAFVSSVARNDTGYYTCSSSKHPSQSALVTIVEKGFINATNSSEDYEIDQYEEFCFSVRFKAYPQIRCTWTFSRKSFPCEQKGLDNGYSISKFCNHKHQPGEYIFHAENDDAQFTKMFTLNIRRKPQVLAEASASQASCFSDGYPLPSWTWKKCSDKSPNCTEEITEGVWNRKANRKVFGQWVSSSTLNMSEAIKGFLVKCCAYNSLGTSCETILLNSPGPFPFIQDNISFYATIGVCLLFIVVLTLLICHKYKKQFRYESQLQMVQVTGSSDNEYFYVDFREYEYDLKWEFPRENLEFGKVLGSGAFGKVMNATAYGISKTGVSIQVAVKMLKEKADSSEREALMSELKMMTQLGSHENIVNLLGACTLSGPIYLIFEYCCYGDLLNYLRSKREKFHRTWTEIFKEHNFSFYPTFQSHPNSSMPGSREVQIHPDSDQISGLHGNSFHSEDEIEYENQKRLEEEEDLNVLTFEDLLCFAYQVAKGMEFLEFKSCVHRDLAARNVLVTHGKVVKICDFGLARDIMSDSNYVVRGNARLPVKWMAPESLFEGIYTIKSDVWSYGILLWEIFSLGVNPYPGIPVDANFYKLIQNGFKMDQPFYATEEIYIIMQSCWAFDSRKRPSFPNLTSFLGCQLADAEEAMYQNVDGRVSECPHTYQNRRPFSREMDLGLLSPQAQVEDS
IC50 vs 100 nM: less than gives 1; not less than gives 0.

Sample answers from the record:
[[record]]
compound = "CN1CCN(c2ccc(-c3cnc4c(-c5ccccc5)coc4c3)cc2)CC1 [Preparative Example 172]"
cat = 1

[[record]]
compound = "CNc1cccc(-c2coc3cc(-c4ccc(N5CCN(C)CC5)cc4)cnc23)c1 [Preparative Example 110]"
cat = 1

[[record]]
compound = "CN1CCN(c2ccc(-c3cnc4c(Oc5ccccc5)coc4c3)cc2)CC1 [Preparative Example 229]"
cat = 0


[in] State whether 100 nM exceeds IC50 recorded for CC(=O)OCc1cccc(-c2coc3cc(-c4ccc(N5CCN(C)CC5)cc4)cnc23)c1 [Preparative Example 94] .
[out] 1

[in] Please let me know if Cn1ccc(-c2coc3cc(-c4ccc(N5CCNCC5)cc4)cnc23)n1 [Preparative Example 37] shows IC50 below 100 nM.
[out] 0

[in] IC50 under 100 nM? Item: CN1CCN(c2ccc(-c3cnc4c(-c5cccc(C(N)=O)c5F)coc4c3)cc2)CC1 [Preparative Example 214]
[out] 0

[in] Dear reviewer, please state whether CN1CCN(c2ccc(-c3cnc4c(-c5ccc(CC(N)=O)cc5)coc4c3)cc2)CC1 [Preparative Example 236] has IC50 strictly beneath 100 nM.
[out] 1

[in] Strictly below 100 nM in IC50? CN1CCN(c2ccc(Nc3cnc4c(-c5ccccc5)coc4c3)cc2)CC1 [Preparative Example 101]
[out] 0

[in] Is the reported IC50 for c1ccc(-c2coc3ccc(Nc4ccc(N5CCOCC5)cc4)nc23)cc1 [compound 8B from WO 2015/165428, reference compound] strictly below 100 nM?
[out] 0

[in] Identify whether the compound c1cc(-c2coc3cc(-c4ccc(N5CCNCC5)nc4)cnc23)ccn1 [Preparative Example 25] records IC50 below 100 nM.
[out] 1
